Experiment: Phase 1 crossover study: AZD5718 plasma pharmacokinetics
Assay type: in vivo, human
Settings: human, plasma, oral, 200 mg, AZD5718 t1/2 lambda z, geometric mean (%CV), 200 mg suspension, fasted, n = 10
Quantity: half-life (h)
Reply numerically in h, unit not repeated.

Param item = `Cc1cc(-c2ccc(C(=O)[C@@H]3CCCC[C@H]3C(=O)Nc3cnn4c3C(=O)NCC4)cc2)n[nH]1` ; retrieve measured half-life. 13.2

====

Biological target: breast cancer resistance protein (BCRP) (Homo sapiens)
Sequence (Q9UNQ0 1-655): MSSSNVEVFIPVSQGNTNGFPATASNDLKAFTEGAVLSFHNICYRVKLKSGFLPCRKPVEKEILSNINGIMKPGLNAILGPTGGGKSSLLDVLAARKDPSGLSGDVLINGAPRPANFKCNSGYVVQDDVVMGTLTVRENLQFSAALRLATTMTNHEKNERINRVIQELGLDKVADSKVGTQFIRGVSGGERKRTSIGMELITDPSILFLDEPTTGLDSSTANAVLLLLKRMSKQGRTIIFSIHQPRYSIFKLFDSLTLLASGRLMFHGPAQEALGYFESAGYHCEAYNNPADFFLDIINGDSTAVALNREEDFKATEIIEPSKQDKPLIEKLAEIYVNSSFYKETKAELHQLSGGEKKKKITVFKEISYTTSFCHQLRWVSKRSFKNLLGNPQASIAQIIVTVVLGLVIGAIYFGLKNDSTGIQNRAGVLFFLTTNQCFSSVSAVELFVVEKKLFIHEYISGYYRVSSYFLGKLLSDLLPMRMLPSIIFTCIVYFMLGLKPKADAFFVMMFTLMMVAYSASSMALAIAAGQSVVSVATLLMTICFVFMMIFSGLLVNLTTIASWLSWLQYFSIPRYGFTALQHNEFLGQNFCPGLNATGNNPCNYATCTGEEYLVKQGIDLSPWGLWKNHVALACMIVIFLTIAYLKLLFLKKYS
Experiment: BCRP transporter inhibition in vitro
Settings: unpublished data
Quantity: IC50 (µM)
Reply numerically in µM, unit not repeated.

Param item = Cc1cc(-c2ccc(C(=O)[C@@H]3CCCC[C@H]3C(=O)Nc3cnn4c3C(=O)NCC4)cc2)n[nH]1 [AZD5718] ; retrieve measured IC50. 20

Provenance of the data: paper PMC7187334
